Each recorded value in this set is attributed to patent US20230265151A1.

Measurement target: human GLP-1 receptor (human, UniProt P43220 24-463)
Test details: cell-based or functional assay
Quantity kind: cAMP EC50 (1.0% HSA) (nM)
Answer with a number only, understood to be in nM.

Example cases with answers are listed next.
INSERT INTO assay_data (binder, readout_units, value_measured) VALUES
  ('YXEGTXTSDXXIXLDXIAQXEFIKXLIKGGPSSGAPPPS (Y-Aib-EGT-αMeF(2F)-TSD-4Pal-αMeS-I-αMeL-LD-Orn-IAQ-Aib-EFIK((2-[2-(2-Amino-ethoxy)-ethoxy]-acetyl)2-(γ-Glu)-(10-(4-carboxyphenoxy)decanoyl))-αMeY-LIK((2-[2-(2-Amino-ethoxy)-ethoxy]-acetyl)2-(γ-Glu)-(10-(4-carboxyphenoxy)decanoyl))GGPSSGAPPPS-NH2) [Example 306]', 'nM', 18.2),
  ('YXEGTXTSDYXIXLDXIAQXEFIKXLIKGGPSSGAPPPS (Y-Aib-EGT-αMeF(2F)-TSDY-Aib-I-αMeL-LD-Orn-IAQ-Aib-EFIK((2-[2-(2-Amino-ethoxy)-ethoxy]-acetyl)2-(γ-Glu)-(10-(4-carboxyphenoxy)decanoyl))-αMeY-LIK((2-[2-(2-Amino-ethoxy)-ethoxy]-acetyl)2-(γ-Glu)-(10-(4-carboxyphenoxy)decanoyl))GGPSSGAPPPS-NH2) [Example 239]', 'nM', 25.2),
  ('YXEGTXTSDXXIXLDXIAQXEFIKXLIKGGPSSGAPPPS (Y-Aib-EGT-αMeF(2F)-TSD-4Pal-Aib-I-αMeL-LD-Orn-IAQ-Aib-EFIK((2-[2-(2-Amino-ethoxy)-ethoxy]-acetyl)-(γ-Glu)-CO-(CH2)12-CO2H)-αMeY-LIK((2-[2-(2-Amino-ethoxy)-ethoxy]-acetyl)-(γ-Glu)-CO-(CH2)12-CO2H)GGPSSGAPPPS-NH2) [Example 339]', 'nM', 68.2);

Give the measured cAMP EC50 (1.0% HSA) of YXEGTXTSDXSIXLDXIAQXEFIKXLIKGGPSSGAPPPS (Y-Aib-EGT-αMeF(2F)-TSD-OMeY-SI-αMeL-LD-Orn-IAQ-Aib-EFIK((2-[2-(2-Amino-ethoxy)-ethoxy]-acetyl)2-(γ-Glu)-CO-(CH2)12-CO2H)-αMeY-LIK((2-[2-(2-Amino-ethoxy)-ethoxy]-acetyl)2-(γ-Glu)-CO-(CH2)12-CO2H)GGPSSGAPPPS-NH2) [Example 262] .
69.8

# repeat for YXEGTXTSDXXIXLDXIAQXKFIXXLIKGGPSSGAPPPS (Y-Aib-EGT-αMeF(2F)-TSD-4Pal-Aib-I-αMeL-LD-Orn-IAQ-Aib-K((2-[2-(2-Amino-ethoxy)-ethoxy]-acetyl)2-(γ-Glu)-CO-(CH2)12-CO2H)FI-(D-Glu)-αMeY-LIK((2-[2-(2-Amino-ethoxy)-ethoxy]-acetyl)2-(γ-Glu)-CO-(CH2)12-CO2H)GGPSSGAPPPS-NH2) [Example 220]
150

# repeat for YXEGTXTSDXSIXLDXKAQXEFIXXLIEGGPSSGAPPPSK (Y-Aib-EGT-αMeF(2F)-TSD-4Pal-SI-αMeL-LD-Orn-K((2-[2-(2-Amino-ethoxy)-ethoxy]-acetyl)2-(γ-Glu)-(10-(4-carboxyphenoxy)decanoyl))AQ-Aib-EFI-(D-Glu)-αMeY-LIEGGPSSGAPPPSK((2-[2-(2-Amino-ethoxy)-ethoxy]-acetyl)2-(γ-Glu)-(10-(4-carboxyphenoxy)decanoyl))-NH2) [Example 273]
40.9
